measured on: orexin-1 (Homo sapiens (Human))
Sequence (O43613 whole entry): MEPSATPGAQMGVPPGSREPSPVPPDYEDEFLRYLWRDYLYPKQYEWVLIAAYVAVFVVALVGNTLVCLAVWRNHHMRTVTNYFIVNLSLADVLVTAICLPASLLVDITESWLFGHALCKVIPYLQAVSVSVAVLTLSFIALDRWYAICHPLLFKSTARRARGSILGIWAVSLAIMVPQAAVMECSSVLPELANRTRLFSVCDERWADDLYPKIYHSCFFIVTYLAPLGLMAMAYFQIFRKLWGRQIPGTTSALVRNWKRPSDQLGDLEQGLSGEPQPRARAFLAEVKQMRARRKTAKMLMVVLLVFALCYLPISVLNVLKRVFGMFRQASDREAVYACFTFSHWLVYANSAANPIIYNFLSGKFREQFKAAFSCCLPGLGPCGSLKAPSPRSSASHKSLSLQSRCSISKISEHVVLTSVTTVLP
assay text: Intracellular calcium measurement (FLIPR), CHO cells expressing human orexin-1 receptor, 3 nM orexin-A
Format: cell-based
protocol conditions: CHO cells expressing human orexin-1 receptor, FLIPR, 3 nM orexin-A; geometric mean if determined several times; read-out: IC50 OX1
quantity: IC50 (nM)
Reply with just the number (in nM).

Past entries and their recorded results:
Cc1ccc(-n2nccn2)c(C(=O)N2CCC[C@H]2c2nnc(-c3ccccc3)[nH]2)c1 [Example 463]	704
COc1cc(C(=O)N2CCC[C@H]2c2noc(-c3ccccc3OC(F)(F)F)n2)c(-n2nccn2)cc1Cl [compound 375]	67
Cc1onc(-c2ccccc2Cl)c1C(=O)N1CCC[C@H]1c1nnc(-c2cccc(Cl)c2C)o1 [Ref 9]	11100

(Q) Return IC50 measured with orexin-1 (Homo sapiens (Human)) given this compound: COc1cc(C(=O)N2CCC[C@H]2c2nnc(-c3ccccc3OC(F)(F)F)[nH]2)c(-n2nccn2)cc1Cl [compound 509]
(A) 22
